# TARGET OR SYSTEM: T1, Unr CSD789 E786A (Drosophila, UniProt B7Z0E2 756-990, E786A)
# T1 sequence: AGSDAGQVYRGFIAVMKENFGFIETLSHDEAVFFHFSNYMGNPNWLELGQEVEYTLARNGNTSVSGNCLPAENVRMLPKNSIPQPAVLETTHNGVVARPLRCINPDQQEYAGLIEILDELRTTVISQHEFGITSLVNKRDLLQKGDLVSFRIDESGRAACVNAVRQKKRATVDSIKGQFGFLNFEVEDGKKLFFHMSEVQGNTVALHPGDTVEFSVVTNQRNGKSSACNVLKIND
# RUN DESCRIPTION: fluorescence polarization
REPORTED METRIC: Kd (µM)
Numbers only, in µM.

[ask] I am curious: what Kd value has been reported for AAAAAAAAAAAAAAA (ssRNA) [A15-mer, 3' labelled] ?
[reply] 50.1

Where do these numbers come from? They come from paper PMC9976900.
